Target: IDH1 R132H (Homo sapiens, UniProt O75874, R132H)
Sequence (O75874 whole entry R132H): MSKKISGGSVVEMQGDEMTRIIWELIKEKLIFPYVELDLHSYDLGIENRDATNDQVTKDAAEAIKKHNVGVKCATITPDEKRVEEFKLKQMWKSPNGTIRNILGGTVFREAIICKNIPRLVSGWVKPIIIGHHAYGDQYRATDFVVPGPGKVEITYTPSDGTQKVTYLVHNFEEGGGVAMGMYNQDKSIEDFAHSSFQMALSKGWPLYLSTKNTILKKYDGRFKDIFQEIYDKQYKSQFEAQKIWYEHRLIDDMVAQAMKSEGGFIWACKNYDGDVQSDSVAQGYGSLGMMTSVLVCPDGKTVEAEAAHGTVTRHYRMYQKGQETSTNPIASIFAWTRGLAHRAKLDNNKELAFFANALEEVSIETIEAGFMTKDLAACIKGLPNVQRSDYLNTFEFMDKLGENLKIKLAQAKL
Test: In vitro assay for IDH1 R132H inhibitors (NADPH/aKG, resazurin detection)
Format: biochemical
Conditions: Table 4B; 0.2 μg/ml IDH1 R132H, 50 minutes at room temperature; read-out: IC50, IDH1 R132H Inhibition
pIC50: −log10 of the molar value.
Would you kindly list pIC50 for each of these compounds?

> print(dat)
                                   compound  measurement.kind  measured.value
1  Cc1ccccc1C(C(=O)NC1CCCCC1)N(Cc1cccs1)C(=O)CN1Cc2cccnc2C1 (stereo not shown)             pIC50    6.00 to 7.00

Quick batch: pIC50 for everything below.
1. Cc1ccccc1C(C(=O)NC1CCCCC1)N(C(=O)CN[C@H]1CCOC1)c1cccc(F)c1 (stereo partly shown)
2. Cc1ccccc1C(C(=O)NC1CCCCC1)N(C(=O)CNCc1cccnc1)c1cccc(F)c1 (stereo not shown)
3. COc1cccc(-c2cccc(N(C(=O)Cn3ccnc3C)C(C(=O)NC3CCCCC3)c3ccccc3C)c2)c1 (stereo not shown)
4. Cc1ccccc1C(C(=O)NC1CCCCC1)N(C(=O)Cc1ccc2[nH]ccc2c1)c1cccc(F)c1 (stereo not shown)
5. Cc1ccccc1C(C(=O)NC1CCCCC1)N(Cc1nccs1)C(=O)Cn1nnc2ccccc21 (stereo not shown)
6. Cc1ccccc1C(C(=O)NC1CCCCC1)N(C(=O)COc1ccccn1)c1cccc(F)c1 (stereo not shown)
7. Cc1ccccc1C(C(=O)NC1CCCCC1)N(C(=O)c1cccs1)c1cccc(F)c1 (stereo not shown)
8. O=C(NC1CCCCC1)C(c1ccccc1F)N(C(=O)Cc1cscn1)c1cccc(F)c1 (stereo not shown)

6.00 to 7.00
6.00 to 7.00
6.00 to 7.00
≥ 7.00
6.00 to 7.00
≥ 7.00
6.00 to 7.00
≥ 7.00

Quick batch: pIC50 for everything below.
1. Cc1ccccc1C(C(=O)NC1CCCCC1)N(C(=O)COC1CCCCC1F)c1cccc(F)c1 (stereo not shown)
2. Cc1ccccc1C(C(=O)NC1CCCCC1)N(C(=O)C1COc2ccccc2O1)c1cccc(F)c1 (stereo not shown)
3. Cc1ccccc1[C@@H](C(=O)NC1CCCCC1)N(C(=O)[C@H]1CCCN1)c1cccc(F)c1
4. Cc1ccccc1C(C(=O)NC1CCCCC1)N(C(=O)Cc1ccncc1)c1cccc(F)c1 (stereo not shown)
5. Cc1ccccc1C(C(=O)NC1CC(F)(F)C1)N(C(=O)Cn1ccnc1C)c1cccc(F)c1 (stereo not shown)
6. COc1ccc(NCC(=O)N(c2cccc(F)c2)C(C(=O)NC2CCCCC2)c2ccccc2C)cc1 (stereo not shown)

1: 6.00 to 7.00; 2: 6.00 to 7.00; 3: 6.00 to 7.00; 4: ≥ 7.00; 5: 6.00 to 7.00; 6: ≥ 7.00

Quick batch: pIC50 for everything below.
1. Cc1ccccc1C(C(=O)NC1CC2CC2C1)N(C(=O)COc1ccccn1)c1cccc(F)c1 (stereo not shown)
2. Cc1ccccc1C(C(=O)NC1CCCCC1)N(C(=O)OCc1ccccc1)c1ccccc1 (stereo not shown)
3. O=C(NC1CCCCC1)C(c1ccccc1F)N(C(=O)Cn1ccc2ncccc21)c1cccc(F)c1 (stereo not shown)
4. COC(=O)N1CCC[C@H]1C(=O)N(c1cccc(F)c1)[C@H](C(=O)NC1CCCCC1)c1ccccc1C
5. Cc1nccn1CC(=O)N(c1cccc(F)c1)C(C(=O)NC1CCCCC1)c1ccccc1F (stereo not shown)
6. Cc1ccccc1C(C(=O)NC1CCCCC1)N(C(=O)COc1cc(C(F)(F)F)ccn1)c1cccc(F)c1 (stereo not shown)
7. Cc1ccccc1C(C(=O)NC1CCCCC1)N(C(=O)Cc1c[nH]c2cnccc12)c1cccc(F)c1 (stereo not shown)
8. Cc1ccccc1C(C(=O)NC1CCCCC1)N(C(=O)Cc1ccc(OC(=O)N(C)C)cc1)c1cccc(F)c1 (stereo not shown)

["6.00 to 7.00", "6.00 to 7.00", "6.00 to 7.00", "≥ 7.00", "6.00 to 7.00", "6.00 to 7.00", "≥ 7.00", "6.00 to 7.00"]

Quick batch: pIC50 for everything below.
1. Cc1ccccc1C(C(=O)NC1CCC(F)(F)CC1)N(C(=O)CNc1cccnc1F)c1cccc(F)c1 (stereo not shown)
2. CC(=O)Oc1ccc(CC(=O)N(c2cccc(F)c2)C(C(=O)NC2CCCCC2)c2ccccc2C)cc1 (stereo not shown)
3. Cc1ccccc1C(C(=O)NC1CCCCC1)N(C(=O)Cn1ccnc1C)c1cccc(-c2ccccc2)c1 (stereo not shown)
4. Cc1ccccc1C(C(=O)NC1CCCCC1)N(C(=O)COc1ccncc1)c1cccc(F)c1 (stereo not shown)
5. COC(=O)NCCC(=O)N(c1cccc(F)c1)C(C(=O)NC1CCCCC1)c1ccccc1C (stereo not shown)
6. Cc1ccccc1C(C(=O)NC1CCCCC1)N(C(=O)Cn1ccnc1C(F)(F)F)c1cccc(F)c1 (stereo not shown)

1. ≥ 7.00
2. ≥ 7.00
3. 6.00 to 7.00
4. 6.00 to 7.00
5. 6.00 to 7.00
6. 6.00 to 7.00

Quick batch: pIC50 for everything below.
1. COC(=O)N1CCCC[C@@H]1C(=O)N(c1cccc(F)c1)[C@H](C(=O)NC1CCCCC1)c1ccccc1C
2. COc1cccc(N(C(=O)Cc2cccs2)C(C(=O)NC2CCCCC2)c2ccccc2C)c1 (stereo not shown)

["6.00 to 7.00", "6.00 to 7.00"]

The origin of these recorded values is patent US20130184222A1.
